- assaySystem: recombinant human PGHS-2 (Homo sapiens)
- Construct: made in house; host or cells: baculovirus/Sf9 insect cells (microsomes)
- Sequence (P35354 18-604): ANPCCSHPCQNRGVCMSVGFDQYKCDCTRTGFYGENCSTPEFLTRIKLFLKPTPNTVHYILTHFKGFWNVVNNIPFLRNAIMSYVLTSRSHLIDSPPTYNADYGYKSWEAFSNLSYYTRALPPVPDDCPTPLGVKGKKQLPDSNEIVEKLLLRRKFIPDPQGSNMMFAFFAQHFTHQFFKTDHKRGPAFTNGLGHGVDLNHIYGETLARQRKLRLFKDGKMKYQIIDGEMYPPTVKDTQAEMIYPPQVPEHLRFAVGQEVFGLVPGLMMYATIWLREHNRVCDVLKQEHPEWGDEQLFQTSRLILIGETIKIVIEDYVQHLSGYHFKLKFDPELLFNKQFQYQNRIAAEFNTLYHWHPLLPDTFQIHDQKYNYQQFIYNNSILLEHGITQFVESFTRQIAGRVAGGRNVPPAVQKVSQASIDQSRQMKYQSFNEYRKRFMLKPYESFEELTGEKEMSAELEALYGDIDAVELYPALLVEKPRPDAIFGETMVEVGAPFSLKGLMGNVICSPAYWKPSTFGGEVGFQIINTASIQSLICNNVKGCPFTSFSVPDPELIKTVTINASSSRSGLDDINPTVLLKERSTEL
- methodSummary: Recombinant human PGHS-2 enzyme assay (PGE2 by EIA)
- Format: biochemical
- conditionDetails: 100 nM compound; microsomes, 60 min preincubation, 10 μM arachidonic acid; read-out: RHuPGHS-2 (% I @ 100 nM)
endpoint: inhibition at 0.1 µM
Answer as a quantity: numeral, then unit.

>  <molecule>
CS(=O)(=O)Nc1ccc([N+](=O)[O-])cc1Oc1ccc2c(c1)OCO2 [Example 5]

>  <inhibition at 0.1 µM>
77%

$$$$
>  <molecule>
CS(=O)(=O)Nc1ccc([N+](=O)[O-])cc1Oc1ccc2ccccc2c1 [Example 1]

>  <inhibition at 0.1 µM>
65%

$$$$
>  <molecule>
CS(=O)(=O)Nc1ccc([N+](=O)[O-])cc1Oc1ccc2cc(F)ccc2c1 [Example 2]

>  <inhibition at 0.1 µM>
56%

$$$$
>  <molecule>
CS(=O)(=O)Nc1ccc([N+](=O)[O-])cc1Oc1ccc2ncsc2c1 [Example 4]

>  <inhibition at 0.1 µM>
43%

$$$$

inhibition at 0.1 µM recorded for this molecule, CS(=O)(=O)Nc1ccc([N+](=O)[O-])cc1Oc1ccc2sccc2c1 [Example 3] , is 59%

----------
- assaySystem: recombinant human PGHS-1 (Homo sapiens)
- Construct: made in house; host or cells: baculovirus/Sf9 insect cells (microsomes)
- Sequence (P23219 24-599): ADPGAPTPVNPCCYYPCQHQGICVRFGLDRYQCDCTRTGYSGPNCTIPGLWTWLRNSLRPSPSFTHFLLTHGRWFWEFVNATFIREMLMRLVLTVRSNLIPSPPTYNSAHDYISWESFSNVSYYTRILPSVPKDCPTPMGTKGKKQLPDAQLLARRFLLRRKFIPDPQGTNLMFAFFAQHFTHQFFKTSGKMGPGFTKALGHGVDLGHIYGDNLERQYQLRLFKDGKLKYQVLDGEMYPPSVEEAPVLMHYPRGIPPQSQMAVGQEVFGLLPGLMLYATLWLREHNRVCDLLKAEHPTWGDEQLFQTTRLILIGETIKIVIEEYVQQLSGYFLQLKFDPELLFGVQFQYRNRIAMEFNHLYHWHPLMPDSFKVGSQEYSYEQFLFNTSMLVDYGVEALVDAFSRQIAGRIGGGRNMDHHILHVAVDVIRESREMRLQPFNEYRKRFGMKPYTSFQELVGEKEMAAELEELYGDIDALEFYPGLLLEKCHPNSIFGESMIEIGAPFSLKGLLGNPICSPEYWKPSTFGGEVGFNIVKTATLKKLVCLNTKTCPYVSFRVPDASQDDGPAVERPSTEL
- methodSummary: Recombinant human PGHS-1 enzyme assay (PGE2 by EIA)
- Type: biochemical
- conditionDetails: 100 μM compound; microsomes, 60 min preincubation, 10 μM arachidonic acid; read-out: RHuPGHS-1 (% I @ 100μM)
Record form. Attribute: inhibition at 100 µM. Fill in for each entry.
Could you give the number and then its unit, please?

Solved entries:
>  <compound>
CS(=O)(=O)Nc1ccc([N+](=O)[O-])cc1Oc1ccc2ccccc2c1 [Example 1]

>  <inhibition at 100 µM>
47%

$$$$
>  <compound>
CS(=O)(=O)Nc1ccc([N+](=O)[O-])cc1Oc1ccc2cc(F)ccc2c1 [Example 2]

>  <inhibition at 100 µM>
26%

$$$$
>  <compound>
CS(=O)(=O)Nc1ccc([N+](=O)[O-])cc1Oc1ccc2sccc2c1 [Example 3]

>  <inhibition at 100 µM>
89%

$$$$

Items follow; give inhibition at 100 µM for each.
1. CS(=O)(=O)Nc1ccc([N+](=O)[O-])cc1Oc1ccc2c(c1)OCO2 [Example 5]
2. CS(=O)(=O)Nc1ccc([N+](=O)[O-])cc1Oc1ccc2ncsc2c1 [Example 4]

["89%", "31%"]
